Listed here: items and their measured inhibition.
Tested on: Tyrosine-protein kinase ABL1 (Homo sapiens), P00519 [Q252H]
assay_conditions: at 1 µM
The reply should contain only the number, in %.

inhibition lookup needed for CC1=C(C(=O)Nc2ccc3[nH]ncc3c2)C(c2ccc(Cl)c(Cl)c2)CC(=O)N1 (stereo not given) , thanks.
3.33

Subsequent entry: CS(=O)(=O)CCN(CC#N)Cc1ccc(-c2ccc3ncnc(Nc4ccc(OCc5cccc(F)c5)c(Cl)c4)c3c2)o1
0.42

Now consider COc1ccc2cc(-c3c(-c4ccncc4)nc(-c4ccc([S+](C)[O-])cc4)n3C)ccc2c1 (stereo not given) and answer again.
5.05

Do the same for Cc1nnc(-c2ccc(C)c(-c3ccc(C(=O)Nc4cccc(C#N)c4)cc3)c2)o1 please
4.21

Another molecule to look at: Cn1cc(C=C2C(=O)Nc3cccnc32)c2ccccc21
33.2

# iterate: Cc1ccc(C(=O)NC2CCCCC2)cc1-c1ccc(C(=O)NCC2CC2)cc1
2.92

---
Which inhibition is listed for CCn1c(-c2nonc2N)nc2c(C#CC(C)(C)O)nc(OC[C@@H](N)c3ccccc3)cc21 ?
-0.28

What about Fc1cccc(COc2ccc(Nc3ncnc4cc(-c5ccc[nH]5)sc34)cc2Cl)c1 ?
6.45

Now the same for COc1ccc(-c2ccncc2)cc1C(N)=O
2.33

What do you have for COc1cc2ncn(-c3cc(O[C@@H](C)c4ccccc4Cl)c(C(N)=O)s3)c2cc1OC ?
28.5

Now try Fc1cccc(COc2ccc(Nc3ncnc4sc(-c5cccs5)cc34)cc2Cl)c1 .
2.11

###

Examples of molecules with documented inhibition follow.
system: Protein-tyrosine kinase 2-beta (Homo sapiens) (UniProt Q14289);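 further: values are the mean percent inhibition of PYK2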
Sequence (Q14289 whole entry, looked up): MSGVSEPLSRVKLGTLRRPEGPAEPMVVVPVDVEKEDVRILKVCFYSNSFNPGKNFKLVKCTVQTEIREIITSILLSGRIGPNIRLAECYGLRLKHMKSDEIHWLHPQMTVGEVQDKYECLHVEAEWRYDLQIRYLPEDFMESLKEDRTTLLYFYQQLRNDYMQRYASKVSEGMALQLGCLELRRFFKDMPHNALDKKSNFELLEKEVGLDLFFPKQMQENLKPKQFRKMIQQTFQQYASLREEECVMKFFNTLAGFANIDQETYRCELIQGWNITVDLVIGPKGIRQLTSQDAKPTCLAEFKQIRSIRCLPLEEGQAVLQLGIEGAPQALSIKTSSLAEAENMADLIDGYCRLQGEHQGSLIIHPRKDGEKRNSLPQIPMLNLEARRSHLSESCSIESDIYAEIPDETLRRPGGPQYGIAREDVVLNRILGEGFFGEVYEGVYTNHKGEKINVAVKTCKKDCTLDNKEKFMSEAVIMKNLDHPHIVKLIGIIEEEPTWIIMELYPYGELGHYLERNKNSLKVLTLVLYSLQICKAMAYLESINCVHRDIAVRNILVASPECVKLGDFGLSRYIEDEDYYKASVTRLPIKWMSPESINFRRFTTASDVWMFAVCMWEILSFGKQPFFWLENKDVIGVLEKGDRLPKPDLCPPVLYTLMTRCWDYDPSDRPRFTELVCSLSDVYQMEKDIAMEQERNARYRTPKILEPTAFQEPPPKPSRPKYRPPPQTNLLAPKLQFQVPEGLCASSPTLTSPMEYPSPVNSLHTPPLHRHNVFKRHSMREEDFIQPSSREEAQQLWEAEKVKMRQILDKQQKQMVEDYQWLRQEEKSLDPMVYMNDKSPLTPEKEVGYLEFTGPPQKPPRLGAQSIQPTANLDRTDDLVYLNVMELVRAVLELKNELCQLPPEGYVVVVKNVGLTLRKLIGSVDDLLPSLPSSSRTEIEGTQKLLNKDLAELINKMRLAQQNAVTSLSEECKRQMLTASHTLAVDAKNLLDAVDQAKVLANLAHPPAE
assay_conditions: at 1 µM
# value in %; strip the unit string

// solved cases for inhibition follow
Entry NC(=O)c1ccc(-c2nc(-c3ccccn3)c(-c3ccc4c(c3)OCO4)[nH]2)cc1 : reported inhibition = ?
6.61

Consider next the molecule NS(=O)(=O)c1ccc(N/N=C2\C(=O)Nc3ccc(C(=O)NCCc4c[nH]cn4)cc32)cc1 in the same way.
24.2

Now the molecule CCn1c(-c2nonc2N)nc2c(C#CC(C)(C)O)nc(OC[C@@H](N)c3ccccc3)cc21
9.22

Now try CS(=O)(=O)Nc1ccc(N/C=C2\C(=O)Nc3ccccc32)cc1 .
20.1

Try this molecule next: Nc1nc(-c2ccc3c(c2)C(=Cc2cc(Br)c(O)c(Br)c2)C(=O)N3)cs1
6.43

Consider now this further molecule.
Look at this molecule and give its reported inhibition. COc1ccc(COc2ccc(Cc3cnc(N)nc3N)cc2OC)cc1
-2.43

###

Entries and their inhibition
system: Death-associated protein kinase 1 (Homo sapiens) (UniProt P53355);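 further: reported figure is the mean inhibition of DAPK1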
Sequence (P53355 whole entry, looked up): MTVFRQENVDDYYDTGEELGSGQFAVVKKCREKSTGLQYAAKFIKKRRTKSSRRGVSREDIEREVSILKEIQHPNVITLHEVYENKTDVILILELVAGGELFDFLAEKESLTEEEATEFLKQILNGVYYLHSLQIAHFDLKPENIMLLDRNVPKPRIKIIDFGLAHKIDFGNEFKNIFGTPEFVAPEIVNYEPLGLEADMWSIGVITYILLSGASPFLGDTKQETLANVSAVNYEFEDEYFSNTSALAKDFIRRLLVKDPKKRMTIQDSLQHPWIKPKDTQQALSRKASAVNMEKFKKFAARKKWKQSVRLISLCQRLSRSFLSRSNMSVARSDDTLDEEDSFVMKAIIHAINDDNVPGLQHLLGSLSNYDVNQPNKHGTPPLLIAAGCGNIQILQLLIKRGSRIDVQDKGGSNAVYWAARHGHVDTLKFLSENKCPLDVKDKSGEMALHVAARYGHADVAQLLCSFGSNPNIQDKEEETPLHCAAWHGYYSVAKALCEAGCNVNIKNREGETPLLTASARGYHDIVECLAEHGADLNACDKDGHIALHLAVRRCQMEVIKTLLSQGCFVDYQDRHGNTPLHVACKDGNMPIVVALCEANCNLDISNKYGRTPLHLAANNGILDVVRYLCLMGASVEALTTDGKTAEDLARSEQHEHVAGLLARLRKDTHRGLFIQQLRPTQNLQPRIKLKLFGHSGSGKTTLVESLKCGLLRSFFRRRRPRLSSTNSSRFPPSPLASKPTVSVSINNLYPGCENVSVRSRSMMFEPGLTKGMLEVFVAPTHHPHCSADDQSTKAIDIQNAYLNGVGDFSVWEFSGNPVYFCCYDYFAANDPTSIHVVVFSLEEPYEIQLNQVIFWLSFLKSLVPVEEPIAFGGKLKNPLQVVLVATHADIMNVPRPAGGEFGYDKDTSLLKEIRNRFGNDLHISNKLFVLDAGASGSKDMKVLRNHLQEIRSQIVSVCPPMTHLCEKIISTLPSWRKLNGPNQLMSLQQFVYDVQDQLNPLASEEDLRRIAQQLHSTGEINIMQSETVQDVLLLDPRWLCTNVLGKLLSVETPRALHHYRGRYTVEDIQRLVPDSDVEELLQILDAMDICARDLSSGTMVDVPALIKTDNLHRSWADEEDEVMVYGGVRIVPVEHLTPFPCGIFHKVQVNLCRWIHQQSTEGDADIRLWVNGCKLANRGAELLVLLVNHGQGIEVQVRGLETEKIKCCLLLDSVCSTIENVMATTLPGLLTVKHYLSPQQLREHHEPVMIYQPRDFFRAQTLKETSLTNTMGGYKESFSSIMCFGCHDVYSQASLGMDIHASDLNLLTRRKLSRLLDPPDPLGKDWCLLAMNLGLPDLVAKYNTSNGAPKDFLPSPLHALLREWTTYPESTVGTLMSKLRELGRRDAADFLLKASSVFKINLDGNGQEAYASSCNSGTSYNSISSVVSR
assay_conditions: at 0.1 µM

Worked cases, inhibition given:
// inhibition lookup, key: Fc1cccc(COc2ccc(Nc3ncnc4cc(-c5ccc[nH]5)sc34)cc2Cl)c1
-1.32%

# iterate: c1cnn2ncc(-c3ccnc(Nc4ccc5c(c4)OCCO5)n3)c2c1
3.38%

Repeat for the following compound: CS(=O)(=O)CCNCc1ccc(-c2ccc3ncnc(Nc4ccc(OCc5cccc(F)c5)c(C(F)(F)F)c4)c3c2)o1
11.7%

Consider next the compound Cc1ccc(NC(=O)c2ccnc(N3CCCC3)c2)cc1-c1ccc(C(=O)NCC2CC2)cc1 in the same way.
2.4%

Okay, next one:
Using the record for CC1=C(C(=O)Nc2ccc3[nH]ncc3c2)C(c2ccc(Cl)c(Cl)c2)CC(=O)N1 (stereo not given) , report its inhibition.
-2.03%

###

system: Ephrin type-A receptor 4 (Homo sapiens)
assay_conditions: at 1 µM
Description: GSK_PKIS: EPHA4 mean inhibition at 1 uM [Nanosyn]
Recorded inhibition by entry
Write it as a number; the unit % goes unstated.

// worked examples, inhibition included
Find the recorded inhibition belonging to CC1=C(C(=O)Nc2ccc3[nH]ncc3c2)C(c2ccc(Cl)c(Cl)c2)CC(=O)N1 (centres undefined) and report it.
4.28

Cool, now O=C1NC(=O)C(N2CCc3ccccc32)=C1c1ccc(Cl)cc1
3.43

Also need N#Cc1c(NC(=O)c2cccc3ccccc23)sc2c1CCCC2 , thanks.
2.64

More entries:
Reported inhibition for CCn1c(-c2nonc2N)nc2c(C#CC(C)(C)O)nc(OC[C@@H](N)c3ccccc3)cc21 : what is it?
6.31

Okay, and COC(=O)Nc1nc2cc(Oc3ccc(NC(=O)Nc4cccc(C(=O)O)c4)cc3)ccc2[nH]1 ?
5.32

Same thing, different molecule: CCN1CCC(CC(=O)Nc2n[nH]c3nc(-c4cccs4)c(Br)cc23)CC1
-3.58

###

system: SRSF protein kinase 3 (Homo sapiens);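 further: values are mean inhibition of MSSK1 (alias of SRPK3)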
assay_conditions: at 1 µM
List of inhibition values.
Please respond with the number in % and leave the unit unwritten.

Name the recorded inhibition for NC(=O)c1cccc(Nc2nccc(Nc3cccc4[nH]ncc34)n2)c1 .
3.95

Also Cc1cc(O)cc(C)c1/C=C/c1cncc(-c2nn[nH]n2)c1 ?
-0.18

Proceed to O=C(Nc1n[nH]c2nc(-c3ccco3)c(Br)cc12)C1CC1
-0.41

Entry Fc1cccc(COc2ccc(Nc3ncnc4cc(-c5ccc[nH]5)sc34)cc2Cl)c1 please
-1.34

Next:
Could you share which inhibition value was measured for Nc1nc(-c2ccccn2)c(-c2ccc3ncccc3n2)s1 ?
0.83

Next compound up: COC(=O)Nc1nc2cc(Oc3cccc(NC(=O)Nc4cc(C(F)(F)F)ccc4F)c3)ccc2[nH]1
-3.98

Check Cc1ccc(NC(=O)c2ccnc(N3CCCC3)c2)cc1-c1ccc(C(=O)NCC2CC2)cc1 too.
-0.3

Would you kindly repeat that for [O-][S+]1CCN(Cc2ccc(-c3ccc4ncnc(Nc5ccc(OCc6ccccc6)c(F)c5)c4c3)o2)CC1 ?
-1.23

Also, CC1=C(C(=O)Nc2ccc3[nH]ncc3c2)C(c2ccc3ccccc3c2)CC(=O)N1 (configuration not stated) please.
-0.13

Same thing, different compound: O=C1NC(=O)C(c2ccccc2Cl)=C1Nc1cccc(O)c1
4.52

Next compound: O=C1NC(=O)C(c2cccc(Cl)c2)=C1Nc1ccc(O)c(Cl)c1
2.47

Another compound to look at: CNC(=O)c1cncc(/C=C/c2c(Cl)cccc2Cl)c1
0.6

###

Below, each of the compounds is paired with its reported inhibition value.
system: Activated CDC42 kinase 1 (Homo sapiens);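 further: values are mean inhibition of TNK2, from the GSK PKIS screening dataset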
assay_conditions: at 0.1 µM
The figure you give is taken to be in %; do not add the unit.

// below: answered compounds
Form field: reported inhibition of NS(=O)(=O)c1ccc(N/N=C2\C(=O)Nc3ccc(C(=O)NCCc4c[nH]cn4)cc32)cc1
1.35

Also check CC(C)=Cc1cccc2c1/C(=N/Nc1ccc(S(N)(=O)=O)cc1)C(=O)N2
0.01

Moving on to CNC(=O)c1cncc(/C=C/c2c(Cl)cccc2Cl)c1
0.26

Next: O=C1NC(=O)C(c2cccc(Cl)c2)=C1Nc1ccc(O)c(Cl)c1
-0.75

Input O=C(Nc1n[nH]c2nc(-c3ccco3)c(Br)cc12)C1CC1
0.93

More entries:
Look at this compound and give its reported inhibition. CCn1c(-c2nonc2N)nc2cncc(C(=O)N3CCNCC3)c21
1.51

Record: CCn1c(-c2nonc2N)nc2c(C#CC(C)(C)O)nc(CN3CCCC3)cc21
-0.98

Would you kindly repeat that for COC(=O)Nc1nc2cc(Oc3cccc(NC(=O)Nc4cc(C(F)(F)F)ccc4F)c3)ccc2[nH]1 ?
-0.5

Same question for COc1ccccc1Nc1ncc(-c2ccccc2)o1 please.
0.63

Similarly, Nc1nc(-c2ccc3c(c2)C(=Cc2cc(Br)c(O)c(Br)c2)C(=O)N3)cs1 ?
-1.13

###

system: Tyrosine-protein kinase Fyn (Homo sapiens)
assay_conditions: at 0.1 µM
Description: GSK_PKIS: FYN mean inhibition at 0.1 uM [Nanosyn]
The label depends only on inhibition: 1.0 if it is at least 1%, 0.0 if it is smaller.

Determine whether this molecule has inhibition no lower than 1%: NC(=O)c1cccc(Nc2nccc(Nc3cccc4[nH]ncc34)n2)c1
1.0

Queued: NC(=O)c1ccc(-c2nc(-c3ccccn3)c(-c3ccc4c(c3)OCO4)[nH]2)cc1
1.0

Then CS(=O)(=O)Nc1ccc(N/C=C2\C(=O)Nc3ccccc32)cc1 ?
0.0

Further cases:
Quick check, inhibition >= 1%? CS(=O)(=O)CCNCc1ccc(-c2ccc3ncnc(Nc4ccc(OCc5ccccc5)c(Cl)c4)c3c2)o1
1.0

Let us now turn to COc1cc(C=NNc2ncnc3c2cnn3-c2ccccc2)ccc1O
1.0

###

system: Cyclin-dependent kinase 2 (Homo sapiens) (UniProt P24941)
assay_conditions: at 1 µM
Reported inhibition values are given for each entry in this list.
State just the number; it will be interpreted in %.

// lookup inhibition | system=Cyclin-dependent kinase 2 (Homo sapiens) (UniProt P24941) | key= Fc1cccc(COc2ccc(Nc3ncnc4sc(-c5cccs5)cc34)cc2Cl)c1;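 further: mean inhibition of the CDK2–cyclin A kinase complex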
1.85

What would you report for COc1cc(C)c(NC(=O)CN(C)C)cc1Nc1nc(Nc2cccc(F)c2C(N)=O)c2cc[nH]c2n1 ?
-9.04

Would you kindly repeat that for O=C1NC(=O)C(c2ccc(Cl)cc2)=C1Nc1ccc(Cl)c(C(=O)O)c1 ?
-8.99

Again, but for COC(=O)Nc1nc2cc(Oc3ccc(NC(=O)Nc4cccc(C(=O)O)c4)cc3)ccc2[nH]1
4.44

What do we get for CC1=C(C(=O)Nc2ccc3[nH]ncc3c2)C(c2ccc3ccccc3c2)CC(=O)N1 (stereo unspecified) ?
9.64

Then this compound: O=C1NC(=O)C(c2ccccc2Cl)=C1Nc1cccc(O)c1
20.6

Queued: CCn1c(-c2nonc2N)nc2cncc(C(=O)N3CC[C@H](N)C3)c21
-1.11
